Consider the following compounds; for each one, report its IC50.
# Test system: CRL-2365 (brain glioblastoma)
# Experiment notes: MTT assay CRL-2365
# Type: cell-based
# Cond: Homo sapiens, read-out: IC50 MTT assay CRL-2365

Form field IC50 for item CCCCCCCC[C@@](C)(O)CCc1oc(=O)c(C)c(O)c1C on CRL-2365 (brain glioblastoma): > 31 µM

Form field IC50 for item CCCCCCCCC(C)(O)CCc1oc(=O)c(C)c(O)c1C (racemic) on CRL-2365 (brain glioblastoma): > 31 µM

Form field IC50 for item CCCCCCCC[C@](C)(O)CCc1oc(=O)c(C)c(O)c1C on CRL-2365 (brain glioblastoma): > 31 µM
